- SYSTEM_TESTED: T1, human ANGPT2 (SPR analyte) (human, UniProt O15123 275-496, limits assumed)
- T1 construct: domain: FLD domain; also called HuANGPT2; human ANGPT2 FLD domain
- T1 sequence (looked up): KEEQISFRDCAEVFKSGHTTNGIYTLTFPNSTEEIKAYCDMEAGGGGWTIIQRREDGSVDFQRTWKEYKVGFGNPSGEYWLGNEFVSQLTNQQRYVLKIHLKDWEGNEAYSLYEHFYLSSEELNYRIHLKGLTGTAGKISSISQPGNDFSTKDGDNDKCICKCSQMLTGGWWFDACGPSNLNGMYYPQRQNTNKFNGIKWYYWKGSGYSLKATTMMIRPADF
- TEST_METHOD_NOTES: SPR (ProteOn XPR36), antibody captured on Protein A/G, ANGPT2 as analyte, 1:1 Langmuir fit
READOUT_NAME: koff (s⁻¹)
Kindly answer with a numeric value in s⁻¹, unit omitted.

// query Give its koff value. Item: ANGPT2-opt-19 (humanized) (antibody, human IgG1, kappa, V domains shown, also called Ang2-opt-19) VH: QVQLVQSGAEVKKPGSSVKVSCKASGYIFIDYFINWVRQAPGQGLEWMGKIGPGSGSSSSNEKFKGRVTITADKSTSTAYMELSSLRSEDTAVYYCAREAFDYDGDYYGMAYWGQGTLVTVSS VL: EIVMTQSPATLSVSPGERATLSCRASQSVLSSGNQKSFLAWYQQKPGQAPRLLIYGASTRETGIPARFSGSGSGTEFTLTISSLQSEDFAVYYCQQDHSYPITFGQGTKLEIKR
// result 5.83e-05
